# tested_on: Melanocortin receptor (M4 and M5) (Homo sapiens) (UniProt P32245+P33032)
# Sequence (P32245 whole entry, looked up): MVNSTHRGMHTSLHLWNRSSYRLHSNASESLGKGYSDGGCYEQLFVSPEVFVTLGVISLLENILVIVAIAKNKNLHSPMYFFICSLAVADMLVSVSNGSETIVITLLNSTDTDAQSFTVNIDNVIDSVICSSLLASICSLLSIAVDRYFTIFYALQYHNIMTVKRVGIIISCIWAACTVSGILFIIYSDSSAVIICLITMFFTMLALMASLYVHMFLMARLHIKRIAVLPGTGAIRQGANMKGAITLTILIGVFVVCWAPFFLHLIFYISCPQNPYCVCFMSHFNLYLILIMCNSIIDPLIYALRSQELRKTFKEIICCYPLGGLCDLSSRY
# Sequence (P33032 whole entry, looked up): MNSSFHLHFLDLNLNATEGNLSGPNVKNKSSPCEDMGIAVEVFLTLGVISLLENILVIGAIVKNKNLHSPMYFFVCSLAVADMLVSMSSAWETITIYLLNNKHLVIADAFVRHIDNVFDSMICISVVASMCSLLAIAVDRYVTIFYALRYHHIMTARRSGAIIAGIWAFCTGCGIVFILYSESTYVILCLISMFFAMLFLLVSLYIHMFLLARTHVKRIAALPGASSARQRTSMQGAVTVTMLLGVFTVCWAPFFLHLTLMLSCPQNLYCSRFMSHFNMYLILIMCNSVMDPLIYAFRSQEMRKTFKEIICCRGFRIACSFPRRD
# experimental_details: Selectivity for human cloned MC5R over human cloned MC4R
# Type: protein assay
assay_readout: Ratio IC50

Sample records with Ratio IC50:
chemical_smiles | Ratio IC50
CCCC[C@H](NC(C)=O)C(=O)N[C@H]1CC(=O)NCCCC[C@@H](C(N)=O)NC(=O)[C@H](Cc2c[nH]c3ccccc23)NC(=O)[C@@H]2CCCN2C(=O)[C@H](Cc2ccc(-c3ccccc3)cc2)NC(=O)[C@@H]2CCCN2C1=O | 340
CCCC[C@H](NC(C)=O)C(=O)N[C@H]1CC(=O)NCCCC[C@@H](C(N)=O)NC(=O)[C@H](Cc2c[nH]c3ccccc23)NC(=O)[C@@H]2CCCCN2C(=O)[C@H](Cc2ccc(-c3ccccc3)cc2)NC(=O)[C@H](Cc2c[nH]cn2)NC1=O | 790

1. CCCC[C@H](NC(C)=O)C(=O)N[C@H]1CC(=O)NCCCC[C@@H](C(N)=O)NC(=O)[C@H](Cc2c[nH]c3ccccc23)NC(=O)[C@@H]2CCCCN2C(=O)[C@H](Cc2ccc(-c3ccccc3)cc2)NC(=O)[C@@H]2CCCN2C1=O
2. CCCC[C@H](NC(C)=O)C(=O)N[C@H]1CC(=O)NCCCC[C@@H](C(N)=O)NC(=O)[C@H](Cc2c[nH]c3ccccc23)NC(=O)[C@@H]2CCCCN2C(=O)[C@H](Cc2ccc(-c3ccccc3)cc2)NC(=O)[C@@H]2Cc3ccccc3CN2C1=O
Endpoint returns the identifier whose Ratio IC50 is numerically larger, either 1 or 2 . The response must carry the label of the picked entry.
1
